// each record: one item and its pKd for PARP-1 CAT ΔHD (Homo sapiens, UniProt P09874)
// field semantics: pKd = negative decimal log of concentration (mol/L)

>  <molecule>
NC(=O)c1cccc(C2OC(COP(=O)(O)OP(=O)(O)OCC3OC(n4cnc5c(N)ncnc54)C(O)C3O)C(O)C2O)c1 (centres unmarked) [BAD, benzamide adenine dinucleotide]

>  <pKd>
5.23

$$$$

For the next question, use this molecule.
Query: Query for PARP-1 CAT ΔHD (Homo sapiens, UniProt P09874): what pKd does the record show for NC(=O)c1ccccc1 [benzamide] ?
Result: 5.49

---

Documented Kd across a set of compounds
- system_name: full-length PARP-1 D766/D770A (Homo sapiens, UniProt P09874, D766A/D770A)
- Construct: Full-length PARP-1 WT (residues 1–1014) was cloned in pET28 vector and site-directed mutagenesis was performed
- Sequence (P09874 whole entry D766A/D770A, the tested form may be a part): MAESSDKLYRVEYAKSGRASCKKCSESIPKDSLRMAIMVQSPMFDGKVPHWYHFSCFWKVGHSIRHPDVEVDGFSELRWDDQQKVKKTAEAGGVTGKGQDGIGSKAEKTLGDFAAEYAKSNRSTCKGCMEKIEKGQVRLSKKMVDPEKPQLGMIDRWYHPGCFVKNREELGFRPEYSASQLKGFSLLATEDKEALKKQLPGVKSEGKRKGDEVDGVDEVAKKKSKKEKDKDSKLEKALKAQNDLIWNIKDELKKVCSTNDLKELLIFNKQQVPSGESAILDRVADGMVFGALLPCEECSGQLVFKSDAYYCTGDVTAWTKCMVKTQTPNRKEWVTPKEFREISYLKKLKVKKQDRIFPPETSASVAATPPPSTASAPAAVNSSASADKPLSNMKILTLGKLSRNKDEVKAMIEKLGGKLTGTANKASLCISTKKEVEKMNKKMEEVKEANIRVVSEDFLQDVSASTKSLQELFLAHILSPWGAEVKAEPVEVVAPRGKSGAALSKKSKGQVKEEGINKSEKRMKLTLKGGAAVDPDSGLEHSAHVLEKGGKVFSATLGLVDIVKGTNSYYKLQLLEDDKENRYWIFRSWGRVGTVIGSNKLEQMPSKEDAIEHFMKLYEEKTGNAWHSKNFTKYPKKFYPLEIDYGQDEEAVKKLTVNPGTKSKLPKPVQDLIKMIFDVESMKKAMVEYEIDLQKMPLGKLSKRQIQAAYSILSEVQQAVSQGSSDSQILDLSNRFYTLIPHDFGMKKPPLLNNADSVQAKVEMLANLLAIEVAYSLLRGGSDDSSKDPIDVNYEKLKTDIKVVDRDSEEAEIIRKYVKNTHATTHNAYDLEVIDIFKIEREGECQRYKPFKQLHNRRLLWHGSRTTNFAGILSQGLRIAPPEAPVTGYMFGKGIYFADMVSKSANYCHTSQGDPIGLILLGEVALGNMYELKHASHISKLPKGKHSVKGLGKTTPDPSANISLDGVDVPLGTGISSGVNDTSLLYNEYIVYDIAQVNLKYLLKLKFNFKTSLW
- experimental_details: ITC, full-length PARP-1 D766/D770A
- conditions_used: FL D766/D770A 40 μM, without DNA; compound 525 μM titrated; 25°C
Give the number first and the unit second.

>  <compound>
NC(=O)c1cccc(C2OC(COP(=O)(O)OP(=O)(O)OCC3OC(n4cnc5c(N)ncnc54)C(O)C3O)C(O)C2O)c1 (centres unmarked) [BAD, benzamide adenine dinucleotide]

>  <Kd>
2490 nM

$$$$

Query: Requested read-out: Kd. Entry: NC(=O)c1ccccc1 [benzamide]
Result: 2810 nM
